- Test system: NCI-H2461 (Mesothelioma)
- experiment_summary: combination Emax (second highest fraction inhibited in the dose matrix, 72 h); higher = more inhibition; extreme values may be limits of the assay
I'd be grateful if you could share measured combination Emax for these entries.
Answers are plain numbers.

| compound | assayed_target | combination Emax |
| --- | --- | --- |
| Cc1c2c(nn1C)CSCc1cc(n(C)n1)CSc1cc(c3ccccc3c1)OCCCc1c(C(=O)O)n(C)c3c-2c(Cl)ccc13 [AZD5991] + Cn1cnc2c(F)c(Nc3ccc(Br)cc3Cl)c(C(=O)NOCCO)cc21 [Selumetinib] (first compound max 1 µM, 7x7, partner max 3 µM) | NCI-H2461 (Mesothelioma) | 0.359 |
| O=C(c1cc(Cc2n[nH]c(=O)c3ccccc23)ccc1F)N1CCN(C(=O)C2CC2)CC1 [Olaparib] + Cc1c2c(nn1C)CSCc1cc(n(C)n1)CSc1cc(c3ccccc3c1)OCCCc1c(C(=O)O)n(C)c3c-2c(Cl)ccc13 [AZD5991] (first compound max 10 µM, 7x7, partner max 1 µM) | NCI-H2461 (Mesothelioma) | 0.127 |

Consider the record given below.
## Input Param readout= combination Emax; system= NCI-H2461 (Mesothelioma); entry= O=C(c1cc(Cc2n[nH]c(=O)c3ccccc23)ccc1F)N1CCN(C(=O)C2CC2)CC1 [Olaparib] + CN(CC[C@H](CSC1=CC=CC=C1)NC2=C(C=C(C=C2)S(=O)(=O)NC(=O)C3=CC=C(C=C3)N4CCC(CC4)[C@H](C5=CC=CC=C5C6=CC=C(C=C6)Cl)O)S(=O)(=O)C(F)(F)F)CCO [AZD4320] (first compound max 10 µM, 7x7, partner max 1 µM) ; returns value.
## Output 0.17
